- Assay remarks: qHTS assay to identify small molecule agonists of the peroxisome proliferator-activated receptor delta (PPARd) signaling pathway - cell viability counter screen (AID 743211); note: nearly all actives have a fitted effect of over 55% in size
- Reported conditions: PPARd-bla HEK293H viability, CellTiter-Glo luminescence, 17 h; series mostly up to 62.6 µM
Results filed as inconclusive are left out. Activity calls are given as the source filed them. Calls come from the whole dose curve; as a rule, active = well fitted cell-killing curve with a large enough effect in the repeat runs; inconclusive = weak or mixed curves; inactive = no such curve, though single readings can be large or run the other way.
Classes used: active, inactive

INSERT INTO assay_data (molecule, qualitative_label) VALUES
  ('COc1ccccc1OCCNCC(O)COc1cccc2[nH]c3ccccc3c12 (configuration not stated)', 'active'),
  ('O=C1OC(OC(=O)c2cccnc2Nc2cccc(C(F)(F)F)c2)c2ccccc21 (configuration not stated)', 'inactive'),
  ('C1CC(COCC2CO2)CCC1COCC1CO1 (configuration not stated)', 'inactive'),
  ('CCCCCCCCCCCCN(CCO)CCO', 'active'),
  ('Cc1cc(Nc2ccc(O)cc2)ccc1N', 'inactive'),
  ('S=P(N1CC1)(N1CC1)N1CC1', 'inactive'),
  ('Clc1ccc(C(Cn2ccnc2)OCc2ccsc2Cl)c(Cl)c1 (configuration not stated)', 'active');

* * *

- Tested on: Thyrotropin-releasing hormone receptor (Homo sapiens) (UniProt P34981)
- Sequence (P34981 whole entry, looked up): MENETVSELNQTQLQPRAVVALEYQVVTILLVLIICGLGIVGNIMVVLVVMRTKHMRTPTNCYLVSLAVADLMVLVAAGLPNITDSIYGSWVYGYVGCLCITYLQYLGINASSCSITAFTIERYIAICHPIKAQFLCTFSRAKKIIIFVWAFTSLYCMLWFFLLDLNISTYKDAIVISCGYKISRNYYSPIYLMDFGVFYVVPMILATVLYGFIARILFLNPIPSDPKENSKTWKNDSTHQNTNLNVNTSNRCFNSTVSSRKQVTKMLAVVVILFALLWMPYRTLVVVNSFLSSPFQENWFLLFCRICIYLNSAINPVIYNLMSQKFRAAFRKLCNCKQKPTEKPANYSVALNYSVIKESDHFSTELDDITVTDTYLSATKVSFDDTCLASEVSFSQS
- Assay remarks: qHTS assay to identify small molecule agonists of the thyrotropin-releasing hormone receptor (TRHR) signaling pathway (AID 1346891);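 note: HEK293 cells expressing TRHR with calcium dye readout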
- Reported conditions: TRHR-HEK293 calcium fluorescence, agonist mode; series mostly up to 57.6 µM
Activity calls are given as the source filed them. The call rests on the fitted dose curve.
Measured parameter: activation

INSERT INTO measurements (compound, tested_on, result) VALUES
  ('CCC(C)c1ccccc1 (centres undefined)', 'Thyrotropin-releasing hormone receptor (Homo sapiens) (UniProt P34981)', 'inactive'),
  ('C#CC(O)CCC (centres undefined)', 'Thyrotropin-releasing hormone receptor (Homo sapiens) (UniProt P34981)', 'inactive'),
  ('O=C1NC2CCCCN2C12CCN(CCCN1c3ccccc3CCc3ccc(Cl)cc31)CC2 (centres undefined)', 'Thyrotropin-releasing hormone receptor (Homo sapiens) (UniProt P34981)', 'inactive'),
  ('CCCCCCCC/C=C/CCCOC(C)=O', 'Thyrotropin-releasing hormone receptor (Homo sapiens) (UniProt P34981)', 'inactive'),
  ('CCCC(O)C(O)CO (centres undefined)', 'Thyrotropin-releasing hormone receptor (Homo sapiens) (UniProt P34981)', 'inactive'),
  ('CC(=O)OC1CCCCC1', 'Thyrotropin-releasing hormone receptor (Homo sapiens) (UniProt P34981)', 'inactive'),
  ('CCCCCCCC(OC)OC', 'Thyrotropin-releasing hormone receptor (Homo sapiens) (UniProt P34981)', 'inactive'),
  ('C=CC/C=C/C/C=C/C/C=C/C', 'Thyrotropin-releasing hormone receptor (Homo sapiens) (UniProt P34981)', 'inactive'),
  ('C[C@]12CC[C@H]3C(=CCc4cc(O)ccc43)[C@@H]1CCC2=O', 'Thyrotropin-releasing hormone receptor (Homo sapiens) (UniProt P34981)', 'inactive'),
  ('CCc1ccc(O)c(C(C)(C)C)c1', 'Thyrotropin-releasing hormone receptor (Homo sapiens) (UniProt P34981)', 'inactive'),
  ('COC(=O)NCCC[Si](OC)(OC)OC', 'Thyrotropin-releasing hormone receptor (Homo sapiens) (UniProt P34981)', 'inactive'),
  ('CCc1c(C(=O)O)c(=O)cnn1-c1ccc(Cl)cc1', 'Thyrotropin-releasing hormone receptor (Homo sapiens) (UniProt P34981)', 'inactive'),
  ('O=C1Nc2ccc(Cl)cc2[C@@](C#CC2CC2)(C(F)(F)F)O1', 'Thyrotropin-releasing hormone receptor (Homo sapiens) (UniProt P34981)', 'inactive'),
  ('CSc1c(Cl)c(Cl)c(Cl)c(Cl)c1Cl', 'Thyrotropin-releasing hormone receptor (Homo sapiens) (UniProt P34981)', 'inactive');
